Data credit: paper PMC10723784

# test-details: MTT cytotoxicity assay, non-cancer PNT2 cells
# particulars: human, PNT2 normal prostate epithelial cells
Exercise: for every item that follows, state its recorded IC50 at 72 h.
Quick note: give the figure in µM, leave out the unit.

May I ask what IC50 at 72 h has been recorded for `C=C(C)[C@@H]1CCC(C)=C[C@H]1c1c(O)cc(CCCCC)cc1O` ?
17.2

Value lookup for IC50 at 72 h; key = `CCCCCc1cc(O)c(C/C=C(\C)CCC=C(C)C)c(O)c1`
19.9

====

# test-details: MTT cytotoxicity assay, non-cancer PNT2 cells
# particulars: human, PNT2 normal prostate epithelial cells
Assignment: determine reported IC50 at 24 h for the given compounds.
Write the value in µM as a bare number.

# lookup: IC50 at 24 h of C=C(C)[C@@H]1CCC(C)=C[C@H]1c1c(O)cc(CCCCC)cc1O [CBD, cannabidiol]
40.6

For the compound CCCCCc1cc(O)c(C/C=C(\C)CCC=C(C)C)c(O)c1 [CBG, cannabigerol] , what IC50 at 24 h is on record?
37.2
